system: guinea pig complement; assay: antibody dependent complement mediated hemolysis assay; format: biochemical; settings: 1 ug/mL peptide added to guinea pig complement, titrated against turkey erythrocytes with hemolysin
Ends that are not written are not given here.
# Hemolysis inhibition (% of maximum) per record follows

>>> assay_result("LRLPYVVREQL [LRL1384, LRLPYVVREQL]")
"≤20%"
>>> assay_result("GQWKIRAYYENS [GQW1513, GQWKIRAYYENS]")
"≤20%"

Measured Hemolysis inhibition (% of maximum) of KRPQDAKNT [KRP1057, KRPQDAKNT] : >20-40%
